test: Pharmacokinetics in mice, plasma and lung; format: in vivo; conditions: female, mouse, lung / plasma, ip, 10 mg/kg intraperitoneal, read-out: lung/plasma ratio

CHEMICAL_SMILES | Kp
Nc1ccccc1C(=O)NS(=O)(=O)OC[C@H]1O[C@@H](n2cnc3c(N)ncnc32)[C@H](O)[C@@H]1O | 0.21

----------
biological target: P. aeruginosa PqsA (Pseudomonas aeruginosa); assay: PqsA inhibition, spectrophotometric assay with recombinant PqsA (anthranilyl-CoA formation at 365 nm); conditions: IC50 for inhibition of P. aeruginosa PqsA
Sequence (Q9I4X3 whole entry): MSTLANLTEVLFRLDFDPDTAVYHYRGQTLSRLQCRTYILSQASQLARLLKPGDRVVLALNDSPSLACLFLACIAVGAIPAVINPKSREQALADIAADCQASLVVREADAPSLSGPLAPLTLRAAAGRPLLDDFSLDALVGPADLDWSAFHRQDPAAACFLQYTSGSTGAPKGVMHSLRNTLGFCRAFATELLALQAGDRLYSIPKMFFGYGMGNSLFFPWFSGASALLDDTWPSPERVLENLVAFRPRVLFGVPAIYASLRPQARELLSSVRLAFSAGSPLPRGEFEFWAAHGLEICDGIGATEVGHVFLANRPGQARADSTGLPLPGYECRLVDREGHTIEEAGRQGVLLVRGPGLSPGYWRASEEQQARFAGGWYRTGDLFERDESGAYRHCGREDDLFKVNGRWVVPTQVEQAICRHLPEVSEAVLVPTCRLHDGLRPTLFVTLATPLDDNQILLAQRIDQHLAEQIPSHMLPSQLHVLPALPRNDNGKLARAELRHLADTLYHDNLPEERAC
Items are presented alongside their recorded IC50.

CHEMICAL_SMILES | IC50 (nM)
Nc1ccccc1C(=O)NS(=O)(=O)OC[C@H]1O[C@@H](n2cnc3c(N)ncnc32)[C@H](N)[C@@H]1N | 7220
Nc1ccccc1C(=O)NS(=O)(=O)NC[C@H]1O[C@@H](n2cnc3c(N)ncnc32)[C@H](O)[C@@H]1O | 213
Nc1ccccc1C(=O)NS(=O)(=O)OC[C@H]1O[C@@H](n2cnc3c(N)ncnc32)C[C@@H]1O | 444
